Each entry below carries its reported MIC50.
- System: Streptococcus viridans
- experiment summary: Antibacterial activity against Streptococcus viridans by broth dilution method
- Assay type: functional
All answers are understood in µg/mL, so give the number only.

# annotated cases, reported MIC50 shown
{"columns": ["query smiles", "endpoint", "unit of measure", "result number"],
 "data": [
  ["CC(=O)NC[C@H]1CN(c2ccc(N3CCOCC3)c(F)c2)C(=O)O1", "MIC50", "µg/mL", 1],
  ["COc1c(N2C[C@@H](C)C[C@H](N)C2)ccc2c(=O)c(C(=O)O)cn(C3CC3)c12.O=C(O)CC(O)C(=O)O", "MIC50", "µg/mL", 0.12],
  ["C[C@H]1COc2c(N3CCN(C)CC3)c(F)cc3c(=O)c(C(=O)O)cn1c23.C[C@H]1COc2c(N3CCN(C)CC3)c(F)cc3c(=O)c(C(=O)O)cn1c23.O", "MIC50", "µg/mL", 1]
]}

## Input Specify MIC50 for O=C(O)c1cn(C2CC2)c2cc(N3CCNCC3)c(F)cc2c1=O and stop.
## Output 1

## Input Specify MIC50 for CN(C)c1cc(NC(=O)CNC(C)(C)C)c(O)c2c1C[C@H]1C[C@H]3[C@H](N(C)C)C(O)=C(C(N)=O)C(=O)[C@@]3(O)C(O)=C1C2=O and stop.
## Output 0.06

## Input Specify MIC50 for COc1c(N2C[C@@H]3CCCN[C@@H]3C2)c(F)cc2c(=O)c(C(=O)O)cn(C3CC3)c12 and stop.
## Output 0.12

## Input Specify MIC50 for CN[C@H](CC(C)C)C(=O)N[C@H]1C(=O)N[C@@H](CC(N)=O)C(=O)N[C@H]2C(=O)N[C@H]3C(=O)N[C@H](C(=O)N[C@H](C(=O)O)c4cc(O)cc(O)c4-c4cc3ccc4O)[C@H](O)c3ccc(c(Cl)c3)Oc3cc2cc(c3O[C@@H]2O[C@H](CO)[C@@H](O)[C@H](O)[C@H]2O[C@H]2C[C@](C)(N)[C@H](O)[C@H](C)O2)Oc2ccc(cc2Cl)[C@H]1O and stop.
## Output 0.5

## Input Specify MIC50 for CO/N=C(\C(=O)N[C@@H]1C(=O)N2C(C(=O)O)=C(CSc3nc(=O)c(O)nn3C)CS[C@H]12)c1csc(N)n1 and stop.
## Output 0.25

----------
- Tested on: Escherichia coli
- experiment summary: Antibacterial activity against ciprofloxacin resistant Escherichia coli by broth dilution method
- Type: functional
Each entry below carries its reported MIC50.

# annotated cases, reported MIC50 shown
{"columns": ["query smiles", "endpoint", "result"],
 "data": [
  ["COc1c(N2C[C@@H](C)C[C@H](N)C2)ccc2c(=O)c(C(=O)O)cn(C3CC3)c12.O=C(O)CC(O)C(=O)O", "MIC50", "> 16 µg/mL"],
  ["CN(C)c1cc(NC(=O)CNC(C)(C)C)c(O)c2c1C[C@H]1C[C@H]3[C@H](N(C)C)C(O)=C(C(N)=O)C(=O)[C@@]3(O)C(O)=C1C2=O", "MIC50", "0.25 µg/mL"]
]}

## Input Give the observed MIC50 of C[C@H]1COc2c(N3CCN(C)CC3)c(F)cc3c(=O)c(C(=O)O)cn1c23.C[C@H]1COc2c(N3CCN(C)CC3)c(F)cc3c(=O)c(C(=O)O)cn1c23.O for Escherichia coli.
## Output > 16 µg/mL
